- ASSAY: Pharmacokinetic evaluation I in ICR mice
- Assay type: in vivo
- CONDITION CONTEXT: mouse, plasma, po, p.o. 5 mg/kg, i.v. 1 mg/kg, read-out: Oral bioavailability (F)
ASSAY READOUT: bioavailability (%)
Quick reminder: number only, in %, skip the unit.

Some solved cases for reference:
{"MOLECULE": "CCS(=O)(=O)c1ccc([C@H](CCO)NC(=O)c2ccc(N3C[C@@H](Oc4ccc(OC(F)(F)F)cc4)C[C@H]3COC(F)F)cc2)cc1 [Example 119]", "bioavailability, %": 71}
{"MOLECULE": "CCS(=O)(=O)c1ccc([C@H](CO)NC(=O)c2ccc(N3C[C@@H](Oc4ccc(C(F)(F)F)cc4)C[C@H]3COC(F)F)cc2)cc1 [Example 39]", "bioavailability, %": 35}
{"MOLECULE": "CCS(=O)(=O)c1ccc([C@H](CO)NC(=O)c2ccc(N3C[C@@H](Oc4ccc(C(F)(F)F)cc4)C[C@H]3COC(F)(F)F)cc2)cc1 [Example 48]", "bioavailability, %": 50}

Field: next molecule
Query: Check the records and state bioavailability for CCS(=O)(=O)c1ccc([C@H](CCO)NC(=O)c2ccc(N3C[C@@H](Oc4ccc(C(F)(F)F)cc4)C[C@H]3COC(F)F)cc2)cc1 [Example 91]
Reply: 42

---

- ASSAY: Pharmacokinetic evaluation I in ICR mice
- Format: in vivo
- CONDITION CONTEXT: mouse, po, 5 mg/kg, plasma
- Protocol: Biological Example 2 Pharmacokinetic Evaluation I ICR mice were weighed after an overnight fast for 15 h, and then randomly divided into groups according to body weight. The test compounds were formulated in a vehicle of 10% DMSO 10% kolliphor HS15^+ 80% Saline. […] The drug concentration in plasma was measured at each time point, and the pharmacokinetic parameters were calculated according to the drug concentration-time curve.
ASSAY READOUT: half-life (h)
Quick reminder: number only, in h, skip the unit.

{"COMPOUND": "CCS(=O)(=O)c1ccc([C@H](CCO)NC(=O)c2ccc(N3C[C@@H](Oc4ccc(OC(F)(F)F)cc4)C[C@H]3COC(F)F)cc2)cc1 [Example 119]", "half-life, h": 6.5}
{"COMPOUND": "CCS(=O)(=O)c1ccc([C@H](CCO)NC(=O)c2ccc(N3C[C@@H](Oc4ccc(C(F)(F)F)cc4)C[C@H]3COC(F)F)cc2)cc1 [Example 91]", "half-life, h": 7.6}
{"COMPOUND": "CCS(=O)(=O)c1ccc([C@H](CO)NC(=O)c2ccc(N3C[C@@H](Oc4ccc(C(F)(F)F)cc4)C[C@H]3COC(F)F)cc2)cc1 [Example 39]", "half-life, h": 3.9}

Field: next compound
Query: Check the records and state half-life for CCS(=O)(=O)c1ccc([C@H](CO)NC(=O)c2ccc(N3C[C@@H](Oc4ccc(C(F)(F)F)cc4)C[C@H]3COC(F)(F)F)cc2)cc1 [Example 48]
Reply: 11.4

---

- SUBJECT OF TEST: RORγ (Homo sapiens, UniProt P51449)
- Construct: The concentration of B-RORγ LBD was 40 nM
- ASSAY: Fluorescence resonance energy transfer (FRET) test, B-RORγ LBD / Biotin-SRC1
- Format: biochemical
ASSAY READOUT: IC50 (nM)
Quick reminder: number only, in nM, skip the unit.

{"MOLECULE": "CCS(=O)(=O)c1ccc([C@H](CO)NC(=O)c2cnc(N3C[C@@H](Oc4ccc(C(F)(F)F)cc4)C[C@H]3COC(F)F)nc2)nc1", "READING UNIT": "nM", "IC50": 9.3}
{"MOLECULE": "CCS(=O)(=O)c1ccc(CNC(=O)c2ccc(N3C[C@@H](Oc4ccc(OC(F)(F)F)cn4)C[C@H]3COC(F)F)cc2)cc1", "READING UNIT": "nM", "IC50": 78}

Field: next compound
Query: Check the records and state IC50 for `CCS(=O)(=O)c1ccc([C@H](CO)NC(=O)c2ccc(N3CC[C@H](Oc4ccc(C(F)(F)F)cc4)C3)cc2)cc1`
Reply: 20

---

The entries below come with measured IC50 values attached.
- SUBJECT OF TEST: RORγ (Homo sapiens, UniProt P51449)
- Construct: The concentration of B-RORγ LBD was 40 nM
- Sequence (P51449 269-508 limits assumed): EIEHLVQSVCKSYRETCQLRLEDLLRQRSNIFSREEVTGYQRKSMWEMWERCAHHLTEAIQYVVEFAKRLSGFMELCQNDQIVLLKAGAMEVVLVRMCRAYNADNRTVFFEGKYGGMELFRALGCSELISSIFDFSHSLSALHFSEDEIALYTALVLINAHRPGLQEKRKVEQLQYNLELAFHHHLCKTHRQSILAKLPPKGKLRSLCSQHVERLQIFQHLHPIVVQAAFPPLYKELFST
- ASSAY: Fluorescence resonance energy transfer (FRET) test, B-RORγ LBD / Biotin-SRC1
- Type: biochemical
Quick reminder: number only, in nM, skip the unit.

Some solved cases for reference:
{"COMPOUND": "CCS(=O)(=O)c1ccc([C@H](CO)NC(=O)c2ccc(N3C[C@H](Oc4ccc(C(F)(F)F)cc4)C[C@H]3COCCC#N)cc2)cc1 [Example 32]", "READING UNIT": "nM", "IC50": 19}
{"COMPOUND": "CCS(=O)(=O)c1ccc([C@@H](CO)NC(=O)c2ccc(N3C[C@@H](Oc4ccc(C(F)(F)F)cc4)C[C@H]3COC(F)F)cc2)cc1 [Example 98]", "READING UNIT": "nM", "IC50": 17}
{"COMPOUND": "CCS(=O)(=O)c1ccc([C@H](CO)NC(=O)c2ccc(N3C[C@@H](Oc4ccc(C(F)(F)F)cc4)C[C@H]3COC(F)F)nc2)cc1 [Example 53]", "READING UNIT": "nM", "IC50": 3}
{"COMPOUND": "CCS(=O)(=O)c1ccc([C@H](CO)NC(=O)c2ccc(N3C[C@H](Oc4ccc(C(F)(F)F)cc4)C[C@H]3CF)cc2)cc1 [Example 24]", "READING UNIT": "nM", "IC50": 32.8}

Query: Check the records and state IC50 for CCS(=O)(=O)c1ccc(CNC(=O)c2ccc(N3C[C@@H](Oc4ccc(OC(F)(F)F)cn4)C[C@H]3COC(F)F)nc2)cc1 [Example 110]
Reply: 11

---

- SUBJECT OF TEST: RORγ (Homo sapiens, UniProt P51449)
- Construct: The concentration of B-RORγ LBD was 40 nM
- ASSAY: Fluorescence resonance energy transfer (FRET) test, B-RORγ LBD / Biotin-SRC1
- Assay type: biochemical
ASSAY READOUT: pIC50
Note on units: pIC50 is unitless, being -log10 of a concentration expressed in mol/L.

Some solved cases for reference:
{"COMPOUND": "CCS(=O)(=O)c1ccc([C@H](CO)NC(=O)c2ccc(N3C[C@H](Oc4ccc(C(F)(F)F)cc4)C[C@H]3COC)cc2)cc1", "ASSAY READOUT": "pIC50", "VALUE MEASURED": 8.00}
{"COMPOUND": "CCC(F)(F)OC[C@@H]1C[C@H](Oc2ccc(C(F)(F)F)cc2)CN1c1ccc(C(=O)N[C@@H](CO)c2ccc(S(=O)(=O)CC)cn2)cc1", "ASSAY READOUT": "pIC50", "VALUE MEASURED": 7.89}
{"COMPOUND": "CCS(=O)(=O)c1ccc(CC(=O)Nc2ccc(N3CCC(Cc4ccc(C(F)(F)F)cc4)C3)cc2)cc1 (stereo not drawn)", "ASSAY READOUT": "pIC50", "VALUE MEASURED": 7.92}
{"COMPOUND": "CCS(=O)(=O)c1ccc([C@H](CO)NC(=O)c2ccc(N3C[C@@H](Oc4ccc(C(F)(F)F)cc4)C[C@H]3COC(F)F)cc2OC)cc1", "ASSAY READOUT": "pIC50", "VALUE MEASURED": 7.52}
{"COMPOUND": "CCCCOC[C@@H]1C[C@@H](Oc2ccc(C(F)(F)F)cc2)CN1c1ccc(C(=O)N[C@@H](CO)c2ccc(S(=O)(=O)CC)cc2)cc1", "ASSAY READOUT": "pIC50", "VALUE MEASURED": 7.88}

Query: Check the records and state pIC50 for CCS(=O)(=O)c1ccc([C@H](CCO)NC(=O)c2ccc(N3CC(Oc4ccc(OC(F)F)cc4)C[C@H]3COC(F)F)cc2)cc1 (stereo in doubt)
Reply: 8.70

---

- SUBJECT OF TEST: RORγ (Homo sapiens)
- Construct: The concentration of B-RORγ LBD was 40 nM
- Sequence (P51449 269-508 limits assumed): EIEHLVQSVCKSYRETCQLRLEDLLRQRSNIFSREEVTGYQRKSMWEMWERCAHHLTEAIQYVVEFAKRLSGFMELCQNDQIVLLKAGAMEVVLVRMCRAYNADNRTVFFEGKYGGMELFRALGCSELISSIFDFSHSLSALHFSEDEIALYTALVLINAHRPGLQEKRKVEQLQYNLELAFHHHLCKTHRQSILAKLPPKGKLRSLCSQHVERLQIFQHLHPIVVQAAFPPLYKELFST
- ASSAY: Fluorescence resonance energy transfer (FRET) test, B-RORγ LBD / Biotin-SRC1
- Type: biochemical
ASSAY READOUT: IC50 (µM)
Quick reminder: number only, in µM, skip the unit.

Some solved cases for reference:
{"MOLECULE": "CCS(=O)(=O)c1ccc([C@H](CO)NC(=O)c2ccc(N3C[C@@H](Oc4ccc(C(F)(F)F)cc4)C[C@H]3COC(F)F)nc2)nc1", "SUBJECT OF TEST": "RORγ (Homo sapiens)", "IC50 [µM]": 0.0076}
{"MOLECULE": "CCS(=O)(=O)c1ccc([C@H](CO)NC(=O)c2ccc(N3C[C@H](Oc4ccc(C(F)(F)F)cc4)C[C@H]3COCC3CC3)nc2)cc1", "SUBJECT OF TEST": "RORγ (Homo sapiens)", "IC50 [µM]": 0.052}
{"MOLECULE": "CCC(F)(F)OC[C@@H]1C[C@H](Oc2ccc(C(F)(F)F)cc2)CN1c1ncc(C(=O)N[C@@H](CO)c2ccc(S(=O)(=O)CC)cc2)cn1", "SUBJECT OF TEST": "RORγ (Homo sapiens)", "IC50 [µM]": 0.008}
{"MOLECULE": "CCS(=O)(=O)c1ccc([C@H](CO)NC(=O)c2cnc(N3C[C@H](Oc4ccc(C(F)(F)F)cc4)C[C@H]3COCCF)nc2)cc1", "SUBJECT OF TEST": "RORγ (Homo sapiens)", "IC50 [µM]": 0.028}
{"MOLECULE": "CCS(=O)(=O)c1ccc([C@H](CO)NC(=O)c2ccc(N3C[C@@H](Oc4ccc(C(F)(F)F)cc4)C[C@H]3COC(F)F)c(OC)c2)cc1", "SUBJECT OF TEST": "RORγ (Homo sapiens)", "IC50 [µM]": 0.026}
{"MOLECULE": "CCS(=O)(=O)c1ccc([C@H](CO)NC(=O)c2cnc(N3C[C@H](Oc4ccc(C(F)(F)F)cc4)C[C@H]3COCC3CC3)nc2)cc1", "SUBJECT OF TEST": "RORγ (Homo sapiens)", "IC50 [µM]": 0.0338}
{"MOLECULE": "CCS(=O)(=O)c1ccc([C@H](CCOP(=O)(O)O)NC(=O)c2ccc(N3C[C@@H](Oc4ccc(OC(F)(F)F)cc4)C[C@H]3COC(F)F)cc2)cc1", "SUBJECT OF TEST": "RORγ (Homo sapiens)", "IC50 [µM]": 0.14}
{"MOLECULE": "CCS(=O)(=O)c1ccc(CC(=O)Nc2ccc(C3CN(Cc4ccc(C(F)(F)F)cc4)CC3C)cc2)cc1 (stereo not drawn)", "SUBJECT OF TEST": "RORγ (Homo sapiens)", "IC50 [µM]": 0.047}

Field: next molecule
Query: Check the records and state IC50 for `CCS(=O)(=O)c1ccc([C@H](CO)NC(=O)c2ccc(N3C[C@H](Oc4ccc(C(F)(F)F)cc4)C[C@H]3CN3CCOC[C@@H]3C)cc2)cc1`
Reply: 0.135

Value source: patent US20230067159A1
